// data source = patent US20250296960A1

Target Or Test System: human GLP-1 receptor (GLP-1R), expressed on CHO-K1 cells (human, UniProt P43220 24-463)
Test Description: cell-based or functional assay
Numbered stars: 1 amine (or outer) side, 2 acyl side, 3 side chain; on linkers, the order of the positions; unused ones are H or OH. Square brackets hold non-standard residues; d marks the D form. Primed or numbered codes have the meaning given here. Side chains are listed from the residue outwards. Ends that are not written are not given here. * marks the point of attachment. C18″ = C18 fatty acid moiety (of 2OEG-γGlu-C18, K*); γGlu = O=C(O)[C@H](CCC(=O)[*:2])N[*:1]; AEEA = NCCOCCOCC(=O)O; Aib = CC(C)(N)C(=O)O
# key: entry, value: Relative % to native ligand
State the value, then name its unit.

// known answers, use as guide
Ask: Need Relative % to native ligand of H[Aib]QGTFTSDYSK([AEEA-AEEA-γGlu-C18″])YLDYMMARDFVQWLIEGGPSSGAPPPS-NH2 [Peptide No. 5D] , thanks.
Reply: 35%

Ask: Okay, and Y[Aib]QGTFTSDYSKYLDYMMQRDFVQWLIEGGPSSGAPPPSC-NH2 (not fully specified (residue 40)) [Peptide No. 5-2A] ?
Reply: 145%

// moving on: another record for Relative % to native ligand
Ask: Need Relative % to native ligand of H[Aib]QGTFTSDYSK([AEEA-AEEA-γGlu-C18″])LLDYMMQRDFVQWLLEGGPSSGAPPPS-NH2 [Peptide No. 5-5D] , thanks.
Reply: 305%
